ASSAYED_SYSTEM: Mitogen-activated protein kinase kinase kinase 8 (Homo sapiens)
Sequence (P41279 whole entry): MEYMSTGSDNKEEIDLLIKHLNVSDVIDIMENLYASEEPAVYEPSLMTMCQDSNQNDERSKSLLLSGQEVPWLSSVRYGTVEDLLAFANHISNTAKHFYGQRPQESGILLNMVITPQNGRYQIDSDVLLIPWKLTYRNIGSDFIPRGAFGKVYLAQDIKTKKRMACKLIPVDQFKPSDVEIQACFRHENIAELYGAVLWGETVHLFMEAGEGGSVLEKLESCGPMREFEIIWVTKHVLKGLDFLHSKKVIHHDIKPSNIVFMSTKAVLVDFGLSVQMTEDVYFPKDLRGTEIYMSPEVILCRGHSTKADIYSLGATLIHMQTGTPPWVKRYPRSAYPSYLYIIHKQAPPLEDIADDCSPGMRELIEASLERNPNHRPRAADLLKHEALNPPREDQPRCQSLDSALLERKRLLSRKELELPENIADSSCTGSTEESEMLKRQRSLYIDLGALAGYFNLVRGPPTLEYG
PROTOCOL_TEXT: Inhibition of TPL2
pIC50: −log10 of the molar value.
MEASURED_ENDPOINT: pIC50

>>> measured("COc1cc(Nc2c(C#N)cnc3cc(/C=C/CCN4CCN(C)CC4)c(OC)cc23)c(Cl)cc1Cl")
"< 5.00"

---

PROTOCOL_TEXT: Inhibition of IGFR
MEASURED_ENDPOINT: IC50

>>> measured("COc1cc(Nc2c(C#N)cnc3cc(/C=C/CCN4CCN(C)CC4)c(OC)cc23)c(Cl)cc1Cl")
"> 10 µM"

---

PROTOCOL_TEXT: Plasma concentration in nude mouse at 50 mg/kg, po after 24 hrs
Type: ADME, organism-based
Set-up: dose 50 mg/kg, route oral
MEASURED_ENDPOINT: concentration at 24 h (µg/mL)

>>> measured("COc1cc(Nc2c(C#N)cnc3cc(/C=C/c4ccc(CN(C)C)cc4)c(OC)cc23)c(Cl)cc1Cl")
0.01
>>> measured("COc1cc(Nc2c(C#N)cnc3cc(/C=C/c4ccc(CN(C)C)cn4)c(OC)cc23)c(Cl)cc1Cl")
0.036
>>> measured("COc1cc(Nc2c(C#N)cnc3cc(OCCCN4CCN(C)CC4)c(OC)cc23)c(Cl)cc1Cl")
0.04
>>> measured("COc1cc(Nc2c(C#N)cnc3cc(/C=C/c4cccc(CN(C)C)n4)c(OC)cc23)c(Cl)cc1Cl")
0.028
